Test system: Septoria tritici
experiment_description: Test G: wheat leaf blotch on wheat seedlings, sprayed the day before inoculation, visual disease rating
Assay type: in vivo
settings: 200 ppm; 100 = 100% disease control, 0 = no control relative to controls
measurement_label: Test G disease control rating (%)
# unit: % | format: bare number

Supply reported Test G disease control rating belonging to this molecule: COc1cc(C#N)cc(F)c1-c1c(Cl)nc(Cl)n1-c1ccc(Cl)c(F)c1 [compound 575] 73

Supply reported Test G disease control rating belonging to this molecule: Fc1cc(-n2c(Cl)nc(Cl)c2-c2ccc(Br)cn2)ccc1Cl [compound 487] 88

Supply reported Test G disease control rating belonging to this molecule: CCOc1ccc(F)c(-c2c(Cl)nc(Cl)n2-c2ccc(Cl)cc2)c1F [compound 664] 99

Supply reported Test G disease control rating belonging to this molecule: Fc1cc(-n2c(Cl)nc(CCl)c2-c2cncc(Br)c2)ccc1Cl [compound 355] 3

Supply reported Test G disease control rating belonging to this molecule: Fc1cc(-n2c(Cl)nc(Cl)c2-c2ccnc(Br)c2)ccc1Cl [compound 485] 95

Supply reported Test G disease control rating belonging to this molecule: Fc1ccc(F)c(-c2c(Cl)nc(Br)n2-c2ccc(Cl)cc2)c1Cl [compound 76] 97

Supply reported Test G disease control rating belonging to this molecule: COc1ccc(-c2c(Cl)nc(C)n2-c2ccc(Cl)cc2)c(F)c1C [compound 114] 95

Supply reported Test G disease control rating belonging to this molecule: COc1ccc(F)c(-c2c(Cl)nc(Cl)n2-c2ccc(Cl)c(C)c2)c1F [compound 399] 96

Supply reported Test G disease control rating belonging to this molecule: COc1cc(F)c(-c2c(Cl)nc(C)n2-c2ccc(F)c(F)c2)c(F)c1 [compound 499] 93
